Biological target: UniProt Q14191
Sequence (Q14191 500-946): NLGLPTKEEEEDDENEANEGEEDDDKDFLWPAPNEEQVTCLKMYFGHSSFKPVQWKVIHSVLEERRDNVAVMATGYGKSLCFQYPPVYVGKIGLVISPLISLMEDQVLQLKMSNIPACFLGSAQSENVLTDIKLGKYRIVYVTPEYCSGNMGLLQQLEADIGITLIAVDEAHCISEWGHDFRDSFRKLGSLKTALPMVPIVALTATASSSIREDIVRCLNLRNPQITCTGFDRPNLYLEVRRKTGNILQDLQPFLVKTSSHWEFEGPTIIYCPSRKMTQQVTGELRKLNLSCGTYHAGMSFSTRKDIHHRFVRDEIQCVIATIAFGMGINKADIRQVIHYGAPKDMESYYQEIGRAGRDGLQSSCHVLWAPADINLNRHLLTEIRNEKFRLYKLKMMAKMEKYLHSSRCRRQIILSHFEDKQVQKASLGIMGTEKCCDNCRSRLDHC
Assay: WRN unwinding assay (FORKF DNA, fluorescence)
Assay type: biochemical
Settings: Table 14
pIC50: −log10 of the molar value.
measured-property: pIC50

I looked up CCc1c(N2CCN(C(=O)Nc3c(C(F)(F)F)ncn3Cc3ccc(OC)cc3)CC2)c(=O)n2nc(C3=CCOCC3)nc2n1CC(=O)Nc1ccc(C(F)(F)F)cc1Cl and its pIC50 for UniProt Q14191 was < 6.00

Field pIC50 (UniProt Q14191), entry CCc1c(N2CCN(C(=O)C(=O)Nc3cc(C)no3)CC2)c(=O)n2nc(C3=CCOCC3)nc2n1CC(=O)Nc1ccc(C(F)(F)F)cc1F : > 7.00

Measured pIC50 for this entry CCc1c(N2CCN(C(=O)c3nnc(C(F)F)[nH]3)CC2)c(=O)n2nc(C3=CCOCC3)nc2n1CC(=O)Nc1ccc(C(F)(F)F)cc1F on UniProt Q14191: > 7.00

Value (pIC50, UniProt Q14191) for record CCc1c(N2CCN(C(=O)c3cnc4[nH]ncc4c3O)CC2)c(=O)n2nc(C3=CCOCC3)nc2n1CC(=O)Nc1ccc(C(F)(F)F)cc1Cl = > 7.00

Assay UniProt Q14191, sample CCc1c(N2CCN(C(=O)CNC(=O)[C@H]3CCCO3)CC2)c(=O)n2nc(C3=CCOCC3)nc2n1CC(=O)Nc1ccc(C(F)(F)F)cc1Cl , pIC50 read: > 7.00

Observed pIC50, UniProt Q14191, CCc1c(N2CCN(C(=O)C(=O)Nc3nccs3)CC2)c(=O)n2nc(N3CCCOCC3)nc2n1CC(=O)Nc1ccc(C(F)(F)F)cc1F : > 7.00

With UniProt Q14191 as the test system, CCc1c(N2CCN(C(=O)CNC(=O)c3ccccc3)CC2)c(=O)n2nc(C(C)(C)C)nc2n1CC(=O)Nc1ccc(C(F)(F)F)cc1Cl showed pIC50 of 6.00 to 7.00

pIC50 for UniProt Q14191 with input CCc1c(N2CCN(C(=O)CNC(=O)c3ccc(F)c(NC)c3)CC2)c(=O)n2nc(C3=CCOCC3)nc2n1CC(=O)Nc1ccc(C(F)(F)F)cc1Cl equals > 7.00

So the reported pIC50 for CCc1c(N2CCN(C(=O)CNC(=O)c3ccccc3Br)CC2)c(=O)n2nc(C3=CCOCC3)nc2n1CC(=O)Nc1ccc(C(F)(F)F)cc1Cl , on UniProt Q14191, turned out to be > 7.00

Reading of pIC50 for CCc1c(N2CCN(C(=O)CNC(=O)c3ncco3)CC2)c(=O)n2nc(N3CCOCC3)nc2n1CC(=O)Nc1ccc(C(F)(F)F)cc1Cl with UniProt Q14191: > 7.00

pIC50 for UniProt Q14191 with input CCc1c(N2CCN(C(=O)CNS(C)(=O)=O)CC2)c(=O)n2nc(C3=CCOCC3)nc2n1CC(=O)Nc1ccc(C(F)(F)F)cc1Cl equals 6.00 to 7.00

Lab note: molecule CCc1c(N2CCN(C(=O)c3nc4ccsc4cc3O)CC2)c(=O)n2nc(C3=CCOCC3)nc2n1CC(=O)Nc1ccc(C(F)(F)F)cc1Cl tested on UniProt Q14191; recorded pIC50 was > 7.00

Summary: CCc1c(N2CCN(C(=O)CNC(=O)c3cc(O)cc(F)c3)CC2)c(=O)n2nc(C3=CCOCC3)nc2n1CC(=O)Nc1ccc(C(F)(F)F)cc1Cl , UniProt Q14191, pIC50 = > 7.00
